Where do these numbers come from? They come from patent US8586743B2.

assay name: Hydrolysis half-life by HPLC (percent hydrolysis) at room temperature
condition set: Tris buffer, pH 8.6
# maps each entry to its half-life

N=c1ccc2c(-c3ccc(C(=O)Oc4c(F)c(F)cc(F)c4F)cc3C(=O)O)c3ccc(N)c(S(=O)(=O)O)c3oc-2c1S(=O)(=O)O [Compound 120, reference compound]    2.32 h

Param item = N=c1ccc2c(-c3ccc(C(=O)Oc4c(Cl)cc(S(=O)(=O)O)cc4Cl)cc3C(=O)O)c3ccc(N)c(S(=O)(=O)O)c3oc-2c1S(=O)(=O)O ; retrieve measured half-life.
77 h
